tested on: PC-3 prostate; experiment: NCI tumour cell line growth inhibition, 48 h
Entries and their measured GI50 follow.

>  <Compound structure string>
COc1ccc(Cn2cc3c(c2-c2ccccc2)CC(C)(C)c2cnoc2-3)cc1

>  <Target of assay>
PC-3 prostate

>  <GI50>
3.27 µM

$$$$
>  <Compound structure string>
CCOC(=O)[C@@H](N)CCC(=O)N[C@@H](CSCc1ccccc1)C(=O)N[C@@H](C(=O)OCC)c1ccccc1

>  <Target of assay>
PC-3 prostate

>  <GI50>
16.5 µM

$$$$

Switching to the query record.
Tell me measured GI50 for CN1CCN(CCCOc2ccc3nc(Nc4ccc(Cl)c(C(F)(F)F)c4)ccc3c2)CC1 please.
13.3 µM

###

test system: MDA-MB-231 breast; test: NCI tumour cell line growth inhibition, 48 h
TGI: recorded values
Answer format: numeric, µM implied, no suffix.

>  <Molecule>
c1cc(CNC23CC4CC(CC(C4)C2)C3)cc(C[N+](Cc2cccc(CNC34CC5CC(CC(C5)C3)C4)c2)(Cc2cccc(CNC34CC5CC(CC(C5)C3)C4)c2)Cc2cccc(CNC34CC5CC(CC(C5)C3)C4)c2)c1 (centres undefined)

>  <Target of assay>
MDA-MB-231 breast

>  <TGI [µM]>
31

$$$$

Kindly review the next molecule as well.
For COc1cccc2c1C(=O)c1c(O)c3c(c(O)c1C2=O)C[C@@](O)(C(C)=O)C[C@@H]3OC1OC(C)C(O)C(N)C1Br (some centres undefined) , write its TGI.
1.72

###

test system: TK-10 renal; assay: NCI tumour cell line growth inhibition, 48 h; in the data active = GI50 below about 0.43 µM; inactive = the rest
Hello, when you answer, please use one of the following outcomes: TRUE for active, FALSE for inactive

For orientation, consider the following solved cases.
>  <Compound>
CN1CCN(CCCOc2ccc3nc(Nc4ccc(Cl)c(C(F)(F)F)c4)ccc3c2)CC1

>  <Label class>
FALSE

$$$$
>  <Compound>
CCCCCCCC/C=C/CCCCCCCC(=O)OC[C@H]1O[C@@H](n2ccc(N)nc2=O)C(F)(F)[C@@H]1O

>  <Label class>
FALSE

$$$$
>  <Compound>
Clc1ccc(C2=Nn3c(COc4ccccc4Cl)nnc3SC2)c(Cl)c1

>  <Label class>
FALSE

$$$$
>  <Compound>
C[C@@]12CC=C3c4nc(Nc5cccc(O)c5)sc4CC[C@]3(C)[C@H]1CC[C@]1(C)C(=O)CC[C@@H]21

>  <Label class>
FALSE

$$$$
>  <Compound>
COC(=O)[C@@H](C)CNS(=O)(=O)N(c1cc(C(F)(F)F)cc(C(F)(F)F)c1)C1CCN(Cc2ccc(F)cc2)CC1

>  <Label class>
FALSE

$$$$

Check the results log: what was the call for COc1cc(-c2ccc3c(c2)NC(=O)/C3=C\c2ccc[nH]2)ccc1O ?
FALSE

For c1cc(CNC23CC4CC(CC(C4)C2)C3)cc(C[N+](Cc2cccc(CNC34CC5CC(CC(C5)C3)C4)c2)(Cc2cccc(CNC34CC5CC(CC(C5)C3)C4)c2)Cc2cccc(CNC34CC5CC(CC(C5)C3)C4)c2)c1 (centres undefined) , what call appears in the results of this test?
FALSE

Could you please tell me the result logged for COc1cc2nc3cc([N+](=O)[O-])ccc3c(NCCCNCCO)c2cc1OC in this assay?
TRUE

Please share the test call associated with COc1ccccc1CNCCCN1C(=O)c2ccc3c4c(ccc(c24)C1=O)C(=O)N(CCCOCCCCOCCCN)C3=O .
FALSE
